Each entry below carries its recorded viability, T/C.
Tested on: 958667-338-R-J2-PDC tumor spheroids viability;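 also: spheroids exposed to compounds for seven days before readout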
Assay: Anticancer human tumor 958667-338-R-J2-PDC patient-derived colon adenocarcinoma cell line growth inhibition [PI3K]
Conditions: second compound 0.0316 µM; first compound 0.316 µM; active compounds read low; spheroids with HUVEC and MSC
Description: Combinatorial screen of targeted agents with the PI3K inhibitors inavolisib, alpelisib, duvelisib, and copanlisib in multi-cell type tumor spheroids A high-throughput screen of multi-cell type tumor spheroids was designed to identify active combinations of targeted small molecules and PI3K pathway inhibitors. […] Compounds. […] If the clinical Cmax for an agent had not been determined, the highest concentration tested was 10 microM. […]
A number alone suffices; assume %.

Notebook: Cn1nccc1Nc1nccc(-c2ccn(C(CO)c3ccc(Cl)c(F)c3)c(=O)c2)n1 (stereo not drawn) + CC(Nc1ncnc2nc[nH]c12)c1cc2cccc(Cl)c2c(=O)n1-c1ccccc1 , viability, T/C read as 92.1

Notebook: C[C@@H](NC(=O)c1ncnc(N)c1Cl)c1ncc(C(=O)Nc2cc(C(F)(F)F)c(Cl)cn2)s1 + COc1c(OCCCN2CCOCC2)ccc2c3n(c(=NC(=O)c4cnc(N)nc4)nc12)CCN3 , viability, T/C read as 77.5

Notebook: CC(Cn1ccc(-c2ccc(C#N)c(Cl)c2)n1)NC(=O)c1cc(C(C)O)[nH]n1 (stereo not drawn) + Cc1nc(NC(=O)N2CCCC2C(N)=O)sc1-c1ccnc(C(C)(C)C(F)(F)F)c1 , viability, T/C read as 84.2
